Difference values, listed per item
# testSummary: Concentrations of the trace elements in the fermentation residue with different complexing agents
# Assay type: physicochemical
# conditionInfo: 100 × times metal versus Simple, 50% NTA
Reply with just the number (in %).

[Cu]: −100.0
[Al]: 9931.3
[Ca+2]: 38.2
[Co]: −100.0
[Mg+2]: 9698.1

-- ask Given the entry "[Zn]" , report its measured Difference.
-- reply −100.0

-- ask Report Difference for "[Fe]" please.
-- reply 4260.1

====

Recorded Bio-availability by entry
# testSummary: Concentrations of the trace elements in the fermentation residue with different complexing agents
# Format: physicochemical
# conditionInfo: column after 50% NTA and citrate (500%), not the invention
Express your answer in %, writing the number without its unit.

[Ca+2]: 100
[Zn]: 0
[Fe]: 100
[Mg+2]: 100
[Cu]: 0
[Co]: 0

Query molecule follows.
-- ask Which Bio-availability is reported for this molecule? "[Al]"
-- reply 100

====

# testSummary: Concentrations of the trace elements in the fermentation residue with different complexing agents
# Type: physicochemical
# conditionInfo: 60% EDTA 60% phosphoric acids
endpointLabel: Bio-availability (Invention) (%)
Provide the reading as a plain figure in %.

Use these answered entries as a reference point.
[Cu]: 0
[Al]: 100
[Fe]: 100

# ---- query compound ----
-- ask If you can, please state the reported Bio-availability (Invention) value of "[Mg+2]" .
-- reply 100
